Assay (mg/vial) values by entry
Assay Method Text: Peptide content (assay) of lyophilized drug product by UPLC-UV at 220 nm, conventional method (peptide as reference standard)
Type: physicochemical
Assay Setup: DP-5P batch, T48M, conventional method (peptide as RS)
Quantity Name: Assay (mg/vial)

LYCYEQLNDSSEEEDEIDGPAGQAEPDRAHYNIVT (Peptide 2): 0.4141 mg/vial
MHGDTPTLHEYMLDLQPETTDLYCYEQLNDSSEEE [Peptide 3]: 0.4311 mg/vial
DKCLKFYSKISEYRHYCYSLYGTTL (Peptide 1): 0.4107 mg/vial
TLRLCVQSTHVDIRTLEDLLMGTLGIVCPICSQKP (Peptide 5): 0.4107 mg/vial
RCINCQKPLCPEEKQRHLDKKQRFHNIRGRWT (Peptide 4): 0.3937 mg/vial

###

Assay Method Text: Peptide content (assay) of lyophilized drug product by UPLC-UV at 220 nm, conventional method (peptide as reference standard)
Format: physicochemical
Assay Setup: DP-5P batch, T54M, conventional method (peptide as RS)
Quantity Name: Label claim (% target 0.40 mg/vial) (%)

RCINCQKPLCPEEKQRHLDKKQRFHNIRGRWT (Peptide 4): 98
DKCLKFYSKISEYRHYCYSLYGTTL (Peptide 1): 102
LYCYEQLNDSSEEEDEIDGPAGQAEPDRAHYNIVT (Peptide 2): 104
MHGDTPTLHEYMLDLQPETTDLYCYEQLNDSSEEE [Peptide 3]: 105
TLRLCVQSTHVDIRTLEDLLMGTLGIVCPICSQKP (Peptide 5): 99

###

Assay Method Text: Peptide content (assay) of lyophilized drug product by UPLC-UV at 220 nm, method according to the invention (USP reserpine reference standard, RRF)
Format: physicochemical
Assay Setup: DP-5P batch, T48M, method according to the invention (USP RS)
Quantity Name: Assay (mg/vial)

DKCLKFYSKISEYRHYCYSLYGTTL (Peptide 1): 0.3910
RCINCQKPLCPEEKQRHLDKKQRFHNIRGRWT (Peptide 4): 0.3820
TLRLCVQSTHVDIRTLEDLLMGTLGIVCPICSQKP (Peptide 5): 0.4028
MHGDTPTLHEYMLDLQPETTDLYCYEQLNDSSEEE [Peptide 3]: 0.3798
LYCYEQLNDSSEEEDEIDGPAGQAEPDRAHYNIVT (Peptide 2): 0.3950

###

Assay (mg/vial) values by entry
Assay Method Text: Peptide content (assay) of lyophilized drug product by UPLC-UV at 220 nm, conventional method (peptide as reference standard)
Assay type: physicochemical
Assay Setup: DP-7P batch, T54M, conventional method (peptide as RS)
Quantity Name: Assay (mg/vial)

KQQLLRREVYDFAFRDLCIVYRDGN (Peptide 8): 0.4289
RDLCIVYRDGNPYAVCDKCLKFYSKI (Peptide 11): 0.4192
MHQKRTAMFQ QERPRKLPQLCTELQTTIHD (MHQKRTAMFQQERPRKLPQLCTELQTTIHD; Peptide 10): 0.4271
YGTTLEQQYNKPLCDLLIRCINCQKPLCPEEK (Peptide 12): 0.4215
LPQLCTELQTTIHDIILECVYCKQQLLRREVY (Peptide 9): 0.4262
DKKQRFHNIRGRWTGRCMSCCRSSRTRRETQL (Peptide 6): 0.4280
HYCYSLYGTTLEQQYNKPLCDLLIR (Peptide 7): 0.4219

###

Assay Method Text: Peptide content (assay) of lyophilized drug product by UPLC-UV at 220 nm, conventional method (peptide as reference standard)
Format: physicochemical
Assay Setup: DP-7P batch, T60M, conventional method (peptide as RS)
Assay (mg/vial) values by entry
Quantity Name: Assay (mg/vial)

DKKQRFHNIRGRWTGRCMSCCRSSRTRRETQL (Peptide 6): 0.4286 mg/vial
MHQKRTAMFQ QERPRKLPQLCTELQTTIHD (MHQKRTAMFQQERPRKLPQLCTELQTTIHD; Peptide 10): 0.4362 mg/vial
YGTTLEQQYNKPLCDLLIRCINCQKPLCPEEK (Peptide 12): 0.4219 mg/vial
KQQLLRREVYDFAFRDLCIVYRDGN (Peptide 8): 0.4294 mg/vial
HYCYSLYGTTLEQQYNKPLCDLLIR (Peptide 7): 0.4222 mg/vial
RDLCIVYRDGNPYAVCDKCLKFYSKI (Peptide 11): 0.4209 mg/vial
LPQLCTELQTTIHDIILECVYCKQQLLRREVY (Peptide 9): 0.4361 mg/vial

###

Assay (mg/vial) values by entry
Assay Method Text: Peptide content (assay) of lyophilized drug product by UPLC-UV at 220 nm, conventional method (peptide as reference standard)
Type: physicochemical
Assay Setup: DP-5P batch, T60M, conventional method (peptide as RS)
Quantity Name: Assay (mg/vial)

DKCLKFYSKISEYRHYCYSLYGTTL (Peptide 1): 0.4082
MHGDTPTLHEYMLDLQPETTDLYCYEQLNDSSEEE [Peptide 3]: 0.4170
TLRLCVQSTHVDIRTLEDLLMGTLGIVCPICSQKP (Peptide 5): 0.4011
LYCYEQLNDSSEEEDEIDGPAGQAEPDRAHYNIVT (Peptide 2): 0.4174
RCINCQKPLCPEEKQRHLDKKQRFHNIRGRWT (Peptide 4): 0.3913

###

Assay Method Text: Peptide content (assay) of lyophilized drug product by UPLC-UV at 220 nm, conventional method (peptide as reference standard)
Type: physicochemical
Assay Setup: DP-5P batch, T48M, conventional method (peptide as RS)
Quantity Name: Label claim (% target 0.40 mg/vial) (%)

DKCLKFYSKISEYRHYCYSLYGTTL (Peptide 1): 103
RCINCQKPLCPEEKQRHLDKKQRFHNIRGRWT (Peptide 4): 98
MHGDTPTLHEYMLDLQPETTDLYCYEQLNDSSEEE [Peptide 3]: 108
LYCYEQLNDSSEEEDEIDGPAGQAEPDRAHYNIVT (Peptide 2): 104
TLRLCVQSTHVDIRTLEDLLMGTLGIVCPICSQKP (Peptide 5): 103

###

Label claim (% target 0.40 mg/vial) values by entry
Assay Method Text: Peptide content (assay) of lyophilized drug product by UPLC-UV at 220 nm, method according to the invention (USP reserpine reference standard, RRF)
Format: physicochemical
Assay Setup: DP-7P batch, T60M, method according to the invention (USP RS)
Quantity Name: Label claim (% target 0.40 mg/vial) (%)

LPQLCTELQTTIHDIILECVYCKQQLLRREVY (Peptide 9): 93
YGTTLEQQYNKPLCDLLIRCINCQKPLCPEEK (Peptide 12): 100
KQQLLRREVYDFAFRDLCIVYRDGN (Peptide 8): 98
DKKQRFHNIRGRWTGRCMSCCRSSRTRRETQL (Peptide 6): 100
RDLCIVYRDGNPYAVCDKCLKFYSKI (Peptide 11): 95
HYCYSLYGTTLEQQYNKPLCDLLIR (Peptide 7): 99
MHQKRTAMFQ QERPRKLPQLCTELQTTIHD (MHQKRTAMFQQERPRKLPQLCTELQTTIHD; Peptide 10): 99

###

Assay Method Text: Peptide content (assay) of lyophilized drug product by UPLC-UV at 220 nm, conventional method (peptide as reference standard)
Type: physicochemical
Assay Setup: DP-7P batch, T0M, conventional method (peptide as RS)
Quantity Name: Assay (mg/vial)

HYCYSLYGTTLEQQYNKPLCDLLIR (Peptide 7): 0.4393
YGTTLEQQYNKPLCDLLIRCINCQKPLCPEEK (Peptide 12): 0.4261
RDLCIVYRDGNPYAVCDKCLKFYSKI (Peptide 11): 0.4235
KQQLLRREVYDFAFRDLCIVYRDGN (Peptide 8): 0.4357
MHQKRTAMFQ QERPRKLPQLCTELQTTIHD (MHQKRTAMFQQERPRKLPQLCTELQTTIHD; Peptide 10): 0.4212
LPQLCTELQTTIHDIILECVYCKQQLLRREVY (Peptide 9): 0.4328
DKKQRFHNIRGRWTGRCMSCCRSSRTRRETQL (Peptide 6): 0.4315

###

Assay Method Text: Peptide content (assay) of lyophilized drug product by UPLC-UV at 220 nm, conventional method (peptide as reference standard)
Type: physicochemical
Assay Setup: DP-7P batch, T54M, conventional method (peptide as RS)
Quantity Name: Label claim (% target 0.40 mg/vial) (%)

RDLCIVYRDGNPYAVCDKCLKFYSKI (Peptide 11): 105
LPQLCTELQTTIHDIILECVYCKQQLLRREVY (Peptide 9): 107
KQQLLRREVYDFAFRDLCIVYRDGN (Peptide 8): 107
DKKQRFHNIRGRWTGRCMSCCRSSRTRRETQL (Peptide 6): 107
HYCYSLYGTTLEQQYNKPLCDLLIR (Peptide 7): 105
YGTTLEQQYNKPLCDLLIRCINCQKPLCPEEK (Peptide 12): 105
MHQKRTAMFQ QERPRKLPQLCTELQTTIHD (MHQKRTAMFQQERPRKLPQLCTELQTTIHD; Peptide 10): 107

Where do these numbers come from? They come from patent US20230296569A1.
